Exercise: for every item that follows, state its recorded IC50.
# testTarget: MCH-2 (Homo sapiens, UniProt P55212)
# Sequence (P55212 24-179 limits assumed): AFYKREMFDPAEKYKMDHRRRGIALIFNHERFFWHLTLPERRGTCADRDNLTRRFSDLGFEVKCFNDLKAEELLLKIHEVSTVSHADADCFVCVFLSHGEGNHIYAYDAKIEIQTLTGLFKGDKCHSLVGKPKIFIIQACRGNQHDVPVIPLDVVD
# Sequence (P55212 194-293 limits assumed): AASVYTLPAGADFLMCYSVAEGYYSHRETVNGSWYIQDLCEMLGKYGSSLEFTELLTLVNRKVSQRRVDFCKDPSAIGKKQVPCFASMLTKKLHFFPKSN
# testSummary: Fluorescence enzyme assay, IC50 determination, Mch2
# Type: biochemical
# cond: Table 3; method of Preparation 3A; read-out: MCH2 I50
Give bare numbers, in µM.

1. CC(C)C[C@H](NC(=O)CCSc1cccc2ccccc12)C(=O)N[C@H](C=O)CC(=O)O 2.72

# input Indicate its recorded IC50; the compound in question is `CC(C)C[C@H](NC(=O)CCCc1ccc2ccccc2c1)C(=O)N[C@H](C=O)CC(=O)O`
# output 14.5

* * *

# testTarget: MCH-5 (Homo sapiens, UniProt Q14790)
# Sequence (Q14790 217-374 limits assumed, species assumed): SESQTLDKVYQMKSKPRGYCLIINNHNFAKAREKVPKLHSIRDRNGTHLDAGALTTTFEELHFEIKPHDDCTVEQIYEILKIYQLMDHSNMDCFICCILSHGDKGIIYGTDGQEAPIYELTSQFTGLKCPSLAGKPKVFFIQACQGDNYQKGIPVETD
# Sequence (Q14790 385-479 limits assumed, species assumed): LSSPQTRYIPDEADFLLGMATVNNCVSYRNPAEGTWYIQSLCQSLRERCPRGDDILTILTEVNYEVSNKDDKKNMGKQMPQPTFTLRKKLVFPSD
# testSummary: Fluorescence enzyme assay, IC50 determination, Mch5
# Type: biochemical
# cond: Table 3; method of Preparation 3A; read-out: MCH5 I50
measureName: IC50 (µM)
Numbers only, in µM.

molecule	testTarget	measureName	measuredNumber
CC(C)C[C@H](NC(=O)COc1ccc(Cc2ccccc2)cc1)C(=O)N[C@H](C=O)CC(=O)O	MCH-5 (Homo sapiens, UniProt Q14790)	IC50	4.72
CC(C)C[C@H](NC(=O)COc1ccc(-c2ccccc2)cc1)C(=O)N[C@H](C=O)CC(=O)O	MCH-5 (Homo sapiens, UniProt Q14790)	IC50	7.53
CC(C)C[C@H](NC(=O)C(C)Oc1cccc2cc(Br)ccc12)C(=O)N[C@H](C=O)CC(=O)O (stereo partly drawn)	MCH-5 (Homo sapiens, UniProt Q14790)	IC50	29.1
CC(C)C[C@H](NC(=O)CCSc1ccc2ccccc2c1)C(=O)N[C@H](C=O)CC(=O)O	MCH-5 (Homo sapiens, UniProt Q14790)	IC50	15
CC(C)C[C@H](NC(=O)COc1ccc(OCc2ccccc2)cc1)C(=O)N[C@H](C=O)CC(=O)O	MCH-5 (Homo sapiens, UniProt Q14790)	IC50	8.6

Provide IC50 for all items below, preserving their order.
1. CC(C)C[C@H](NC(=O)COc1ccc(Oc2ccccc2)cc1)C(=O)N[C@H](C=O)CC(=O)O
2. CC(C)C[C@H](NC(=O)C(C)CC(=O)c1cccc2ccccc12)C(=O)N[C@H](C=O)CC(=O)O (stereo partly drawn)
3. Cc1ccc2ccccc2c1OCC(=O)N[C@@H](CC(C)C)C(=O)N[C@H](C=O)CC(=O)O

# output
[9.28, 3.25, 4.14]

* * *

# testTarget: CPP32 (Homo sapiens)
# testSummary: Dissociation constant Ki and irreversible rate constant k3 for irreversible inhibitors, CPP32
# cond: continuous assay 60 min, reaction initiated by adding enzyme
Exercise: for every item that follows, state its recorded Ki.
Give bare numbers, in nM.

Please review the following examples before continuing.
compound	Ki (nM)
C[C@H](NC(=O)COc1ccccc1-c1ccccc1)C(=O)NC(CC(=O)O)C(=O)COc1c(F)c(F)cc(F)c1F (stereo partly drawn)	86
CC(C)[C@H](NC(=O)COc1cccc2ccccc12)C(=O)N[C@@H](CC(=O)O)C(=O)COc1ccccc1	62

Provide Ki for all items below, preserving their order.
1. CC(C)[C@H](NC(=O)CCOc1cccc2ccccc12)C(=O)N[C@@H](CC(=O)O)C(=O)COc1cc(C(F)(F)F)n(-c2ccccc2)n1
2. CC(C)[C@H](NC(=O)COc1ccccc1-c1ccccc1)C(=O)N[C@@H](CC(=O)O)C(=O)COc1c(F)cc(F)cc1F
3. CC(C)[C@H](NC(=O)COc1cccc2ccccc12)C(=O)N[C@@H](CC(=O)O)C(=O)COc1ccc(F)c(F)c1F

# output
1: 1180; 2: 32; 3: 135

# input Indicate its recorded Ki; the compound in question is `CC(C)[C@H](NC(=O)COc1cccc2ccccc12)C(=O)N[C@@H](CC(=O)O)C(=O)COC(=O)c1c(Cl)cccc1Cl`
# output 12

* * *

# testTarget: MCH-3 (Homo sapiens, UniProt P55210)
# Sequence (P55210 24-198 limits assumed, species assumed): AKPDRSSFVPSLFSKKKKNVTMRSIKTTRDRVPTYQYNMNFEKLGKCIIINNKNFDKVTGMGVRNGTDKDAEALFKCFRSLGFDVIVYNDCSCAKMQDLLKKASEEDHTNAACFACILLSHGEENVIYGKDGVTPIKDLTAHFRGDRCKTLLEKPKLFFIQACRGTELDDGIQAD
# Sequence (P55210 207-303 limits assumed, species assumed): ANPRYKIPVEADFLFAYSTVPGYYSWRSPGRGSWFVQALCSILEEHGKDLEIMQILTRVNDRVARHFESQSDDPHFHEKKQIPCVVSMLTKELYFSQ
# testSummary: Fluorescence enzyme assay, IC50 determination, Mch3
# Assay type: biochemical
# cond: Ac-DEVD-AMC substrate, 30 min preincubation, room temperature; read-out: MCH-3 IC50
Exercise: for every item that follows, state its recorded IC50.
Numbers only, in µM.

Please review the following examples before continuing.
compound	measureName	readoutUnits	measuredNumber
CC(C)[C@H](NC(=O)COc1cccc2ccccc12)C(=O)N[C@H](C=O)CC(=O)O [Example 2]	IC50	µM	2.1
CC(C)[C@H](NC(=O)COc1cccc2c(NS(=O)(=O)C(F)(F)F)cccc12)C(=O)N[C@H](C=O)CC(=O)O [Example 188]	IC50	µM	11

Provide IC50 for all items below, preserving their order.
1. CC(C)C[C@H](NC(=O)[C@@H](CCC(=O)O)Oc1cccc2ccccc12)C(=O)N[C@H](C=O)CC(=O)O [Example 4]
2. CC(C)[C@H](NC(=O)COc1c(C(=O)O)ccc2ccccc12)C(=O)N[C@H](C=O)CC(=O)O [Example 6]
3. CC(C)C[C@H](NC(=O)COc1cccc2c1OC(C)(C)C2)C(=O)N[C@H](C=O)CC(=O)O [Example 10]
4. CC(C)[C@H](NC(=O)COc1ccc2ccccc2c1C(=O)O)C(=O)N[C@H](C=O)CC(=O)O [Example 5]
5. CC(C)C[C@H](NC(=O)C(C)Nc1cccc2ccccc12)C(=O)N[C@H](C=O)CC(=O)O (mixture of isomers) [Example 9]
6. CC(C)C[C@H](NC(=O)CNc1cccc2ccccc12)C(=O)N[C@H](C=O)CC(=O)O [Example 8]
7. CC(C)C[C@H](NC(=O)COc1cccc2ccccc12)C(=O)N[C@H](C=O)CC(=O)O [Example 1]

# output
1: 0.13; 2: 1.65; 3: 2.32; 4: 10.9; 5: 7.24; 6: 1.32; 7: 1.56

Provide IC50 for all items below, preserving their order.
1. CC(C)[C@H](NC(=O)COc1cc2ccccc2cc1C(=O)O)C(=O)N[C@H](C=O)CC(=O)O [Example 7]
2. CC(C)C[C@H](NC(=O)[C@H](CCC(=O)O)Oc1cccc2ccccc12)C(=O)N[C@H](C=O)CC(=O)O [Example 3]

# output
1: 17; 2: 0.587

* * *

# testTarget: MCH-5 (Homo sapiens, UniProt Q14790)
# testSummary: Dissociation constant Ki and irreversible rate constant k3 for irreversible inhibitors, Mch5
# Type: biochemical
# cond: continuous assay 60 min, reaction initiated by adding enzyme
Exercise: for every item that follows, state its recorded MCH-5 k3/Ki.

Please review the following examples before continuing.
compound	result
CC(C)[C@H](NC(=O)COc1cccc2ccccc12)C(=O)N[C@@H](CC(=O)O)C(=O)COc1cc(F)ccc1F [Example 70]	480 M⁻¹ s⁻¹
CC(C)[C@H](NC(=O)COc1cccc2ccccc12)C(=O)N[C@@H](CC(=O)O)C(=O)COP(=O)(Cc1ccccc1)c1ccccc1 (stereo partly drawn) [Example 107]	27,800 M^−1s^−1
CC(C)[C@H](NC(=O)COc1ccc2ccccc2c1)C(=O)NC(CC(=O)O)C(=O)CF (mixture of isomers) [Example 54]	32,300 M^−1s^−1
CC(C)[C@H](NC(=O)COc1ccc2ccccc2c1)C(=O)N[C@@H](CC(=O)O)C(=O)COc1c(F)c(F)cc(F)c1F [Example 157]	11,600 M^−1s^−1

Provide MCH-5 k3/Ki for all items below, preserving their order.
1. CC(C)[C@H](NC(=O)COc1cccc2ccccc12)C(=O)N[C@@H](CC(=O)O)C(=O)COc1c(F)c(F)c(F)c(F)c1F [Example 80]
2. CC(C)[C@H](NC(=O)COc1cccc2ccccc12)C(=O)N[C@@H](CC(=O)O)C(=O)COc1c(-c2ccccc2)oc2ccccc2c1=O [Example 115]

# output
8,040 M^−1s^−1
0 M⁻¹ s⁻¹

* * *

# testTarget: CPP32 (Homo sapiens, UniProt P42574)
# Sequence (P42574 29-175 limits assumed, species assumed): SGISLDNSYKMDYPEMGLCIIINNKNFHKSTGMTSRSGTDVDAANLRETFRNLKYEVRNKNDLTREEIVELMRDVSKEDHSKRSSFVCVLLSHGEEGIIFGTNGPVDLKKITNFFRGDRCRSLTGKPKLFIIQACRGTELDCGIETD
# Sequence (P42574 176-277 limits assumed, species assumed): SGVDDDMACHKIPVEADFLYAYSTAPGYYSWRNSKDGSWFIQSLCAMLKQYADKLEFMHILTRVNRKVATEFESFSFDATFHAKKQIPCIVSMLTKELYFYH
# testSummary: Dissociation constant Ki and irreversible rate constant k3 for irreversible inhibitors, CPP32
# Format: biochemical
# cond: continuous assay 60 min, reaction initiated by adding enzyme
measureName: CPP32 k3/Ki

Please review the following examples before continuing.
molecule	CPP32 k3/Ki
CC(C)[C@H](NC(=O)COc1cccc2ccccc12)C(=O)N[C@@H](CC(=O)O)C(=O)COC(=O)c1c(Cl)cccc1Cl	725,000 M^−1s^−1
CC(C)[C@H](NC(=O)COc1cccc2ccccc12)C(=O)N[C@@H](CC(=O)O)C(=O)COc1c(-c2ccccc2)oc2ccccc2c1=O	127,000 M^−1s^−1
CC(C)[C@H](NC(=O)COc1cccc2ccccc12)C(=O)N[C@@H](CC(=O)O)C(=O)COP(C)(=O)c1ccccc1 (stereo partly shown)	151,000 M^−1s^−1
CC(C)C(NC(=O)COc1ccccc1-c1ccccc1)C(=O)NC(CC(=O)O)C(=O)CF (stereo not shown)	105,000 M^−1s^−1
CC(C)[C@H](NC(=O)COc1cccc2ccccc12)C(=O)N[C@@H](CC(=O)O)C(=O)COc1c(F)cc(F)cc1F	114,000 M^−1s^−1

Provide CPP32 k3/Ki for all items below, preserving their order.
1. CC(C)C[C@H](NC(=O)COc1ccccc1-c1ccccc1)C(=O)N[C@@H](CC(=O)O)C(=O)COc1c(F)cc(F)cc1F
2. CC(C)[C@H](NC(=O)COc1cccc2ccccc12)C(=O)N[C@@H](CC(=O)O)C(=O)COn1nnc2ccccc2c1=O
3. CC(C)[C@H](NC(=O)CCOc1cccc2ccccc12)C(=O)N[C@@H](CC(=O)O)C(=O)COC(=O)c1c(Cl)cccc1Cl
4. O=C(O)CC(NC(=O)[C@@H]1CCCCN1C(=O)COc1cccc2ccccc12)C(=O)CF (stereo partly shown)
5. C[C@H](NC(=O)COc1ccccc1-c1ccccc1)C(=O)NC(CC(=O)O)C(=O)COc1c(F)c(F)cc(F)c1F (stereo partly shown)

# output
1: 308,000 M^−1s^−1; 2: 169,000 M^−1s^−1; 3: 98,200 M^−1s^−1; 4: 14,400 M^−1s^−1; 5: 89,700 M^−1s^−1
